Where these numbers come from: patent US20260183275A1

Target: human TLR7 (Homo sapiens)
Construct: host or cells: HEK-Blue cells
Assay: TLR7 inhibition reporter assay (HEK-Blue cells, SEAP reporter)
Type: cell-based
Conditions: HEK-Blue cells overexpressing human TLR7; stimulated with gardiquimod 7.5 μM; SEAP read after 22 hour; dose range 0.05 nM-50 μM
QUANTITY_NAME: IC50 (µM)

COMPOUND: CC(C)N1CCN(c2ccc(-c3ccc4[nH]c(=O)c(-c5ccc(C(N)=O)cc5)cc4c3)cc2)CC1 [Example 53]
IC50 / µM: 4.52

COMPOUND: CC(C)N1CCN(c2ccc(-c3ccc4[nH]c(=O)c(-c5ccc(N6CCCC6=O)cc5)cc4c3)cc2)CC1 [Example 56]
IC50 / µM: 5.98

COMPOUND: CC(C)N1CCN(c2ccc(-c3ccc4[nH]c(=O)c(-c5ccc(N(C)C6CN(C)C6)cc5)cc4c3)cc2)CC1 [Example 51]
IC50 / µM: 1.34

COMPOUND: CCc1c(-c2ccc(S(C)(=O)=O)cc2)c(=O)n(C)c2ccc(-c3ccc(C4CCN(C(C)C)CC4)cc3)cc12 [Example 86]
IC50 / µM: 10.4

COMPOUND: CC(C)N1CCN(c2ccc(-c3ccc4[nH]c(=O)c(-c5cccc(F)c5F)cc4c3)cc2)CC1 [Example 24]
IC50 / µM: 2

a. CC(=O)Nc1ccc(-c2cc3cc(-c4ccc(N5CCN(C(C)C)CC5)cc4)ccc3[nH]c2=O)cc1 [Example 5]
b. CC(C)N1CCN(c2ccc(-c3ccc4c(c3)cc(-c3ccc(NC(=O)c5ccccn5)cc3)c(=O)n4C)cc2)CC1 [Example 50]
c. CC(C)N1CCN(c2ccc(-c3ccc4[nH]c(=O)c(-c5cn(C)c6ccccc56)cc4c3)cc2)CC1 [Example 48]
d. CC(C)N1CCC(c2ccc(-c3ccc4[nH]c(=O)c(-c5cccc(NS(C)(=O)=O)c5)cc4c3)cc2)CC1 [Example 67]
e. CN1CCC(c2ccc(-c3ccc4[nH]c(=O)c(-c5ccc(NS(C)(=O)=O)cc5)cc4c3)cc2)CC1 [Example 70]
**Q:** Please give the order of these compounds when sorted by IC50, largest value leading. Form entry: ranked labels (order as requested).
**A:** b, a, c, d, e

---

Target: human TLR7 (Homo sapiens, UniProt Q9NYK1)
Construct: host or cells: HEK-Blue cells
Experiment: TLR7 inhibition reporter assay (HEK-Blue cells, SEAP reporter)
Assay type: cell-based
Conditions: HEK-Blue cells overexpressing human TLR7; stimulated with gardiquimod 7.5 μM; SEAP read after 22 hour; dose range 0.05 nM-50 μM
Procedure: HEK-Blue™-cells (Invivogen) overexpressing human TLR7, TLR8 or TLR9 receptors were used for screening inhibitors of these receptors using an inducible SEAP (secreted embryonic alkaline phosphatase) reporter gene under the control of the IFN-β minimal promoter fused to five NF-κB and AP-1-binding sites. […] The percent inhibition is determined as the % reduction in the HEK-Blue signal present in wells treated with agonist plus DMSO alone compared to wells treated with a known inhibitor.
pIC50: −log10 of the molar value.
QUANTITY_NAME: pIC50

// solved cases for pIC50 follow
COMPOUND: COc1cccc(-c2cc3cc(-c4ccc(N5CCN(C(C)C)CC5)cc4)ccc3[nH]c2=O)c1 [Example 30]
REPORTED_MEASUREMENT: 5.67
//
COMPOUND: CC(C)N1CCN(c2ccc(-c3ccc4[nH]c(=O)c(-c5cccc(F)c5)cc4c3)cc2)CC1 [Example 47]
REPORTED_MEASUREMENT: 5.06

P. CN1CCC(c2ccc(-c3ccc4[nH]c(=O)c(-c5ccc(S(C)(=O)=O)cc5)cc4c3)cc2)CC1 [Example 76]
Q. CCc1c(-c2ccc(S(C)(=O)=O)cc2)c(=O)n(C)c2ccc(-c3ccc(N4CCN(C(C)C)CC4)cc3)cc12 [Example 77]
R. CC(C)N1CCN(c2ccc(-c3ccc4[nH]c(=O)c(-c5ccccc5C#N)cc4c3)cc2)CC1 [Example 15]
S. CC(C)N1CCC(c2ccc(-c3ccc4[nH]c(=O)c(-c5ccc(S(C)(=O)=O)cc5)cc4c3)cc2)CC1 [Example 71]
**Q:** // smallest pIC50 at index 0, largest at the end Form entry: ranked labels (order as requested).
**A:** S, Q, P, R

---

Molecular target: human TLR7 (Homo sapiens)
Construct: host or cells: HEK-Blue cells
Sequence (Q9NYK1 27-1049): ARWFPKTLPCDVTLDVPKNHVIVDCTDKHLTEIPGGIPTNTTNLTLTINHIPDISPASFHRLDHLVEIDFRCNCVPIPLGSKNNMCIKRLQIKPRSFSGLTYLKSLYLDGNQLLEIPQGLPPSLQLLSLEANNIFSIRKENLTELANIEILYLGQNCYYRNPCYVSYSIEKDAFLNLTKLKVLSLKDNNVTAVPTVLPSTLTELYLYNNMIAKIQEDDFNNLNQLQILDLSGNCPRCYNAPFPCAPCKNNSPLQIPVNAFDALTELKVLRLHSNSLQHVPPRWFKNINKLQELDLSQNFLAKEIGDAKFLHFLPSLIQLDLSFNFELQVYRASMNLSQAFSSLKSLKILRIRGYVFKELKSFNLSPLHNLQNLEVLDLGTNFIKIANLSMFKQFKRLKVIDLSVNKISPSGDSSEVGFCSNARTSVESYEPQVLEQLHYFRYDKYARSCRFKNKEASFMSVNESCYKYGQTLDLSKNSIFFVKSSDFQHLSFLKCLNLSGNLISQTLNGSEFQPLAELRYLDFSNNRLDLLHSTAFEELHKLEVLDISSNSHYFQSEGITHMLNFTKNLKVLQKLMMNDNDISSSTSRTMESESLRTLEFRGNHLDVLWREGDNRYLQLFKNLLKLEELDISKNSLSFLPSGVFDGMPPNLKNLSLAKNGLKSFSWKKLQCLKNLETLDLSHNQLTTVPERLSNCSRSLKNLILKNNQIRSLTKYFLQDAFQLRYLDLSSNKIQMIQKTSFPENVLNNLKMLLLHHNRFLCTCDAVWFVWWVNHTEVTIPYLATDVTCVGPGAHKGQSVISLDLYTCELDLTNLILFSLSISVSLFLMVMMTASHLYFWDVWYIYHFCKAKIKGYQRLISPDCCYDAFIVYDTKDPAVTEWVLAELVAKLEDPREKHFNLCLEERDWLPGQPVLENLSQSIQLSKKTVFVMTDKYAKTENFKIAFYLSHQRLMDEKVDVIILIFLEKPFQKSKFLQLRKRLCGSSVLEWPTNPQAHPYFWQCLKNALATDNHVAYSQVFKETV
Assay: TLR7 inhibition reporter assay (HEK-Blue cells, SEAP reporter)
Type: cell-based
Details: HEK-Blue cells overexpressing human TLR7; stimulated with gardiquimod 7.5 μM; SEAP read after 22 hour; dose range 0.05 nM-50 μM
pIC50: −log10 of the molar value.
QUANTITY_NAME: pIC50

SMILES_CODE: CC(C)N1CCC(c2ccc(-c3ccc4c(c3)cc(-c3ccc(S(C)(=O)=O)cc3)c(=O)n4CCCO)cc2)CC1
EXPERIMENTAL_TARGET: human TLR7 (Homo sapiens)
pIC50: 5.26
--
SMILES_CODE: CC(C)N1CCN(c2ccc(-c3ccc4[nH]c(=O)c(-c5ccc(Cl)cc5Cl)cc4c3)cc2)CC1
EXPERIMENTAL_TARGET: human TLR7 (Homo sapiens)
pIC50: 5.05
--
SMILES_CODE: CCc1c(-c2ccc(S(C)(=O)=O)cc2)c(=O)[nH]c2ccc(-c3ccc(N4CCN(C(C)C)CC4)cc3)cc12
EXPERIMENTAL_TARGET: human TLR7 (Homo sapiens)
pIC50: 5.63
--
SMILES_CODE: CC(C)N1CCN(c2ccc(-c3ccc4[nH]c(=O)c(-c5ccc(F)cc5)cc4c3)cc2)CC1
EXPERIMENTAL_TARGET: human TLR7 (Homo sapiens)
pIC50: 4.37
--
SMILES_CODE: CNC(=O)Nc1ccc(-c2cc3cc(-c4ccc(N5CCN(C(C)C)CC5)cc4)ccc3[nH]c2=O)cc1
EXPERIMENTAL_TARGET: human TLR7 (Homo sapiens)
pIC50: 5.27
--
SMILES_CODE: CC(C)N1CCN(c2ccc(-c3ccc4[nH]c(=O)c(-c5cc(F)ccc5F)cc4c3)cc2)CC1
EXPERIMENTAL_TARGET: human TLR7 (Homo sapiens)
pIC50: 5.81
--
SMILES_CODE: CN1CCC(c2ccc(-c3ccc4c(c3)cc(-c3ccc(S(C)(=O)=O)cc3)c(=O)n4C)cc2)CC1
EXPERIMENTAL_TARGET: human TLR7 (Homo sapiens)
pIC50: 5.67
--
SMILES_CODE: CC(C)N1CCN(c2ccc(-c3ccc4[nH]c(=O)c(-c5cccnc5)cc4c3)cc2)CC1
EXPERIMENTAL_TARGET: human TLR7 (Homo sapiens)
pIC50: 6.38

A. CC(C)N1CCN(c2ccc(-c3ccc4[nH]c(=O)c(-c5nn(C)c6ccccc56)cc4c3)cc2)CC1
B. CC(=O)Nc1ccc(-c2cc3cc(-c4ccc(C5CCN(C(C)C)CC5)cc4)ccc3[nH]c2=O)cc1
**Q:** Hi there! Just curious which has the higher pIC50 between A and B . Lab note: record the label of whichever item you select.
**A:** B
